Assay: Single dose plasma pharmacokinetics (4 mg/kg i.p.), NCA
Format: in vivo, Sprague-Dawley rats
Conditions: female, Sprague-Dawley, rat, plasma, ip, 4 mg/kg, female rats, single dose 4 mg/kg i.p.; read-out: AUC 0–72, plasma total
measurement kind: AUC(0-t) (ng·h/mL)
Give bare numbers, in ng·h/mL.

stdin: Sample N#Cc1ccc(C(c2ccc(C#N)cc2)n2cncn2)cc1 — what was its AUC(0-t)?
stdout: 54400

====

Experiment: Steady state brain ECF pharmacokinetics by intracerebral microdialysis
Settings: male, Sprague-Dawley, rat, brain ECF / unbound plasma, intraperitoneal, 4 mg/kg, Kpuu, range over single dose and steady state (Cmax and AUC0-12), male rats
measurement kind: Kp uu

stdin: Sample N#Cc1ccc(C(c2ccc(C#N)cc2)n2cncn2)cc1 — what was its Kp uu?
stdout: 0.6 to 0.9
